test: in vitro; conditions: rat, microsomes
Attribute: microsomal CLint at 1 µM

{"columns": ["molSmiles", "unitAnnotation", "microsomal CLint at 1 µM"],
 "data": [
  ["Cn1cc(-c2ccc(-c3cncc4ccc(S(N)(=O)=O)cc34)cc2)cn1", "µL/min/mg", 220],
  ["CNC(=O)c1ccc2cncc(-c3ccc4c(c3)CS(=O)(=O)N4C)c2n1", "µL/min/mg", 142],
  ["Cn1cc(-c2ccc(-c3cnc(N)c4ccc(C(=O)N5CCCC5)nc34)cc2)cn1", "µL/min/mg", 63],
  ["Cn1cc(-c2ccc(-c3cncc4ccc(C(=O)N5CCCC5)nc34)cc2)cn1", "µL/min/mg", 55]
]}

---

assay: in vitro; details: human, microsomes
endpointName: log10 microsomal CLint at 1 µM (log10 of the value in µL/min/mg)

{"columns": ["molSmiles", "observedMeasurement"],
 "data": [
  ["CNC(=O)c1ccc2cncc(-c3ccc(-c4cnn(C)c4)cc3)c2n1", 1.60],
  ["Cn1cc(-c2ccc(-c3cncc4ccc(-c5ccnn5C)nc34)cc2)cn1", 2.16],
  ["Cn1cc(-c2ccc(-c3cncc4ccc(N5CCCC5=O)nc34)cc2)cn1", 2.16],
  ["Cn1cc(-c2ccc(-c3cnc(N)c4ccc(C(=O)N5CC(C)(F)C5)cc34)cc2)cn1", 1.88],
  ["CNC(=O)c1ccc2cncc(-c3ccc4cnn(C)c4c3)c2n1", 1.51],
  ["COC1CN(C(=O)c2ccc3cncc(-c4ccc(-c5cnn(C)c5)cc4)c3n2)C1", 1.54],
  ["Cn1cc(-c2ccc(-c3cncc4ccc(C(N)=O)nc34)cc2)cn1", 1.53],
  ["Cn1cc(-c2ccc(-c3cnc(N)c4ccc(C(=O)N5CC(F)(F)C5)cc34)cc2)cn1", 2.09],
  ["Cn1cc(-c2ccc(-c3cncc4ccc(N5CCNC5=O)nc34)cc2)cn1", 1.81],
  ["Cn1cc(-c2ccc(-c3cncc4ccc(N5CCOC5=O)cc34)cc2)cn1", 1.82],
  ["Cn1cc(-c2ccc(-c3cnc(N)c4ccc(C(=O)N5CC(F)(F)C5)nc34)cc2)cn1", 1.40],
  ["CC(=O)Nc1ccc2cncc(-c3ccc(-c4cnn(C)c4)cc3)c2c1", 1.41],
  ["Cn1cc(-c2ccc(-c3cnc(N)c4ccc(C(=O)N5CCCC5)nc34)cc2)cn1", 1.48],
  ["Cn1cc(-c2ccc(-c3cncc4ccc(C(=O)N5CCNCC5)nc34)cc2)cn1", 1.56],
  ["Cn1cc(-c2ccc(-c3cncc4ccc(-c5nccn5C)cc34)cc2)cn1", 2.60],
  ["Cn1cc(-c2ccc(-c3cncc4ccc(-c5nccn5C)nc34)cc2)cn1", 2.53],
  ["CNC(=O)c1ccc2cncc(-c3ccc(-c4cnn(C)c4)cc3)c2c1", 1.43],
  ["Cn1cc(-c2ccc(-c3cnc(N)c4ccc(C(=O)NC5CC5)cc34)cc2)cn1", 1.20]
]}

---

tested on: Caco-2; conditions: human
Could you label it 1 (yes) if measured Caco-2 ER is 10 or higher, and 0 (no) otherwise?

{"columns": ["compound", "discreteLabel"],
 "data": [
  ["Cn1cc(-c2ccc(-c3cnc(N)c4ccc(C(=O)NC5CC5)cc34)cc2)cn1 [Compound 64]", "1 (yes)"],
  ["Cn1cc(-c2ccc(-c3cnc(N)c4ccc(C(=O)N5CCNCC5)nc34)cc2)cn1 [Compound 49]", "1 (yes)"],
  ["COC1(C)CN(C(=O)c2ccc3c(N)ncc(-c4ccc(-c5cnn(C)c5)cc4)c3c2)C1 [Compound 60]", "0 (no)"],
  ["Cn1cc(-c2ccc(-c3cnc(N)c4ccc(C(=O)N5CC(F)(F)C5)cc34)cc2)cn1 [Compound 61]", "0 (no)"],
  ["Cn1cc(-c2ccc(-c3cnc(N)c4ccc(N5CCOC5=O)cc34)cc2)cn1 [Compound 65]", "1 (yes)"],
  ["Cn1cc(-c2ccc(-c3cnc(N)c4ccc(C(=O)N5CCOCC5)nc34)cc2)cn1 [Compound 50]", "0 (no)"]
]}

Origin of values: paper PMC4904262
